test system: P388 leukemia ip, CD2F1 mice, survival T/C; test: NCI In Vivo Anticancer Drug Screen. Data for tumor model P388 Leukemia (intraperitoneal) in CD2F1 (CDF1) mice; settings: endpoint: median survival time; dose: 100.0 mg/kg/injection; schedule: Q04DX003 (ip); vehicle: saline; higher = longer survival
Toxic doses and inconclusive results are not listed.
reported.endpoint: T/C

Known results for molecules:
[[record]]
molecule = "S=C(S)N1CCOCC1"
target_entity = "P388 leukemia ip, CD2F1 mice, survival T/C"
value = "100 % of control"

[[record]]
molecule = "O=C(O)C1CSC2(CCCC2)N1 (centres undefined)"
target_entity = "P388 leukemia ip, CD2F1 mice, survival T/C"
value = "101 % of control"

[[record]]
molecule = "CC1(C)COC(=O)/C1=C\\C#N"
target_entity = "P388 leukemia ip, CD2F1 mice, survival T/C"
value = "101 % of control"


Moving on to another molecule below.
Query block: Suppose we examine the molecule "C=CCN1C(=O)[N+](C)(C)N=C1[O-]" ; what T/C value has been reported?
Result block: 106 % of control

---

system: P388 leukemia ip, CD2F1 mice, survival T/C; assay: NCI In Vivo Anticancer Drug Screen. Data for tumor model P388 Leukemia (intraperitoneal) in CD2F1 (CDF1) mice; details: endpoint: median survival time; dose: 200.0 mg/kg/injection; schedule: Q01DX005 (ip); vehicle: Klucel (hydroxypropylcellulose) (HPC); higher = longer survival
Toxic doses and inconclusive results are not listed.
reported.endpoint: T/C

Answered examples (5):
[[record]]
compound = "CCC(CN1N=C(c2ccc(Cl)cc2)CCC1=O)C(=O)CCC(=O)O (centres undefined)"
value = "113 % of control"

[[record]]
compound = "CN1C(=O)c2ccc3c4ccc5c6c(ccc(c7ccc(c2c37)C1=O)c64)C(=O)N(c1ccccc1)C5=O"
value = "86 % of control"

[[record]]
compound = "CC[C@@]1(C(N)=O)CC2C=CC1C2 (some centres undefined)"
value = "96 % of control"

[[record]]
compound = "O=C(O)c1nn(-c2ccc(Cl)cc2)c2c1C(=O)c1ccccc1C2=O"
value = "103 % of control"

[[record]]
compound = "CSc1cccc(NC(=O)Nc2nc3c(C)cccc3s2)c1"
value = "90 % of control"


Query block: Report T/C for C/C=C/CCC(=O)CC(O)CCO (centres undefined) please.
Result block: 101 % of control

Query block: Field request: T/C | item: "COc1ccc(N2C(=O)CC(c3cc(OC)c(OC)c(OC)c3)CC2=O)cc1"
Result block: 90 % of control

Query block: Give its T/C value. Item: CCOc1ccc(C(C)c2cc3c(cc2OC)OCO3)cc1C (centres undefined)
Result block: 116 % of control

Query block: Which measured T/C value corresponds to "CCCN(CCC)c1ccc(C(=O)Oc2c(C)cccc2OC)cc1" ?
Result block: 90 % of control

Query block: Item "Fc1c(F)c(C(F)(F)F)c(F)c(F)c1-n1nnc(-c2ccccc2)n1" has what recorded T/C?
Result block: 100 % of control

Query block: Entry under review: "N=Nc1c(OC(=O)Nc2ccccc2)[nH]c2ccccc12" . Reported T/C?
Result block: 87 % of control

Query block: So what does the record say about T/C for CCCCCC1OC1CC1OC1CCCCCCCC(=O)OC (centres undefined) ?
Result block: 104 % of control

Query block: Endpoint output: T/C of "O=C(OCCn1ncnn1)c1ccc([N+](=O)[O-])cc1" . Value?
Result block: 95 % of control

Query block: For "CC12CC(c3ccccc3N1)C1CC2(C)Nc2ccccc21" , what is its reported T/C?
Result block: 102 % of control
